Please go through the items and note down their Correlation with fiber digestibility.
test system: Canines; assay: Metabolite correlations with fiber digestibility (plasma metabolomics); assay type: in vivo, canine; conditions: plasma after overnight fasting in fifth week of feeding, correlations with P value < 0.01

Data request: Item `CCCCCCCCCCCCCCCCC(=O)OC[C@@H](O)COP(=O)(O)OCCN` has what recorded Correlation with fiber digestibility?
Data returned: −0.4181

Data request: Try this compound next: CCCCCCCCCCCCCCCC(=O)OCC(O)CO (stereo not shown)
Data returned: −0.3548

Data request: Try this compound next: `Cc1c(C)c2c(c(C)c1O)CC[C@@](C)(CCC[C@H](C)CCC[C@H](C)CCCC(C)C)O2`
Data returned: −0.3263

Data request: Try this compound next: `OC[C@@H](O)[C@@H](O)[C@@H](O)CO`
Data returned: −0.3122
